SYSTEM UNDER TEST: GRP78ATPase (ATPase domain of human GRP78, residues 26–407) (Homo sapiens)
Construct: GRP78ATPase (residues 26–407) was amplified from the full-length human GRP78; hexahistidine tag (pET28-MHL vector) (N); made in house; host or cells: E. coli BL-21(DE3)
Sequence (P11021 26-407): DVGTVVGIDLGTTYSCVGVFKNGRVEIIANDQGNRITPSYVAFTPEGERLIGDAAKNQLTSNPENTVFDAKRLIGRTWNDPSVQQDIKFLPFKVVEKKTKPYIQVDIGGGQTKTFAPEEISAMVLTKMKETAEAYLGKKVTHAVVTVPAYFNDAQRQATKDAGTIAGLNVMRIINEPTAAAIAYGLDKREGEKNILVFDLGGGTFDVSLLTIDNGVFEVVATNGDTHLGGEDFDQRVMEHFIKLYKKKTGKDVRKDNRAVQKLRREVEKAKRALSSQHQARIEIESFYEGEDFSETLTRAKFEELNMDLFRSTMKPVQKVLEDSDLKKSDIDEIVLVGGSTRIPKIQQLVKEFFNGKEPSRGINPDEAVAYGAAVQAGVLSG
ASSAY NOTES: Surface plasmon resonance (SPR) binding of nucleotides to immobilized GRP78ATPase
DETAILS: SPR running buffer untreated (no addition of either MgCl2 or EDTA); 25 °C; mean ± SD, n = 3
pKd: −log10 of the molar value.
Reported pKd values are given for each entry in this list.

MOLECULE | SYSTEM UNDER TEST | pKd
Nc1ncnc2c1ncn2[C@@H]1O[C@H](COP(=O)(O)OP(=O)(O)CP(=O)(O)O)[C@@H](O)[C@H]1O | GRP78ATPase (ATPase domain of human GRP78, residues 26–407) (Homo sapiens) | 4.28
Nc1ncnc2c1ncn2[C@H]1C[C@H](O)[C@@H](COP(=O)(O)OP(=O)(O)OP(=O)(O)O)O1 | GRP78ATPase (ATPase domain of human GRP78, residues 26–407) (Homo sapiens) | 3.12
Nc1ncnc2c1ccn2C1OC(COP(=O)(O)OP(=O)(O)OP(=O)(O)O)C(O)C1O (stereo not shown) | GRP78ATPase (ATPase domain of human GRP78, residues 26–407) (Homo sapiens) | 6.82
Nc1ncnc2c1ncn2[C@@H]1O[C@H](COP(=O)(O)OP(=O)(O)OP(=O)(O)O)[C@@H](O)[C@H]1O | GRP78ATPase (ATPase domain of human GRP78, residues 26–407) (Homo sapiens) | 6.11
